Each entry below lists one item and its recorded MIC value.
# Test system: Escherichia coli
# assay_summary: Antimicrobial activity against Escherichia coli […] harboring gyrA L83, N87, parC I80, K84 and parE D460 mutant gene by agar dilution method
# Type: functional, K-12
Number in µg/mL, nothing else.

Below are worked cases with known answers.
# molecule, test_value
rows = [
    ("CCn1cc(C(=O)O)c(=O)c2cc(F)c(N3CCNCC3)cc21", 400),
    ("COc1c(N2CCNC(C)C2)c(F)cc2c(=O)c(C(=O)O)cn(C3CC3)c12 (centres undefined)", 20),
    ("O=C(O)c1cn(C2CC2)c2cc(N3CCNCC3)c(F)cc2c1=O", 200),
]

Alright, here's another molecule for you.
Query "C[C@H]1COc2c(N3CCN(C)CC3)c(F)cc3c(=O)c(C(=O)O)cn1c23.C[C@H]1COc2c(N3CCN(C)CC3)c(F)cc3c(=O)c(C(=O)O)cn1c23.O" yields MIC of 50
